tested on: Mycobacterium tuberculosis H37Rv; experiment: Antitubercular activity, broth dilution assay (MIC); format: cell-based; settings: Mycobacterium tuberculosis, H37RV, 504 h, Middlebrook 7H9 broth, 37 °C, 21 days
Binarize MIC at 60 µM; below is true, at or above is false.

O=C(/C=C/c1ccccn1)c1ccc(Cl)c(Cl)c1 [Compound 11]	true

Pending compound:
Determine whether this compound shows MIC lower than 60 µM (ties excluded): O=C(/C=C/c1ccc2c(c1)OCO2)c1ccc(Cl)c(Cl)c1 [Compound 10]
false

----------
assay: Cytotoxic activity on normal cells, MTT assay; assay type: cell-based; settings: L02 cells (normal human cell line)
For each of the compounds below, state its IC50 at 48 h.

# example entries with known answers
Clc1ccc(C2=NN(c3ccccc3)C(c3ccco3)C2)cc1Cl (stereo not drawn) [Compound 29]	> 75 µg/mL
Clc1ccc(C2=NN(c3ccccc3)C(c3ccc4c(c3)OCO4)C2)cc1Cl (stereo not drawn) [Compound 25]	> 75 µg/mL
Fc1ccccc1C1CC(c2ccc(Cl)c(Cl)c2)=NN1c1ccccc1 (stereo not drawn) [Compound 19]	> 75 µg/mL

Please state, for each entry, its recorded IC50 at 48 h.
1. Clc1ccc(C2=NN(c3ccccc3)C(c3ccccn3)C2)cc1Cl (stereo not drawn) [Compound 26]
2. Clc1ccc(C2CC(c3ccc(Cl)c(Cl)c3)=NN2c2ccccc2)c(Cl)c1 (stereo not drawn) [Compound 23]
3. Fc1ccc(C2CC(c3ccc(Cl)c(Cl)c3)=NN2c2ccccc2)cc1 (stereo not drawn) [Compound 18]
4. O=C(/C=C/c1cccnc1)c1ccc(Cl)c(Cl)c1 [Compound 12]

["> 75 µg/mL", "> 75 µg/mL", "> 75 µg/mL", "> 50 µg/mL"]

Please state, for each entry, its recorded IC50 at 48 h.
1. O=C(/C=C/c1ccc2c(c1)OCO2)c1ccc(Cl)c(Cl)c1 [Compound 10]
2. Clc1ccc(C2=NN(c3ccccc3)C(c3ccncc3)C2)cc1Cl (stereo not drawn) [Compound 28]

["> 50 µg/mL", "> 75 µg/mL"]

----------
For each of the compounds below, state its IC50 at 48 h.
Test: Cytotoxic activity on normal cells, MTT assay
Assay type: cell-based
Conditions: L02 cells (normal human cell line)
Method: The antiproliferative activity of the compounds was determined their IC50 values. Methotrexate (Mtx; positive control) was used as a reference standard for comparing the antiproliferative activity of the target compounds. […] The optical density was determined at 570 nm using a micro plate reader. […] The antiproliferative activity results measured as IC50 values in µg/mL were converted and expressed in µM. […]

# example entries with known answers
Cc1ccc(/C=C/C(=O)c2ccc(Cl)c(Cl)c2)cc1 [Compound 2]	> 50 µg/mL
Fc1ccc(C2CC(c3ccc(Cl)c(Cl)c3)=NN2c2ccccc2)c(F)c1 (centres unmarked) [Compound 22]	> 75 µg/mL
Cc1ccc(C2CC(c3ccc(Cl)c(Cl)c3)=NN2c2ccccc2)cc1 (centres unmarked) [Compound 17]	> 75 µg/mL
Clc1ccc(C2=NN(c3ccccc3)C(c3cccnc3)C2)cc1Cl (centres unmarked) [Compound 27]	> 75 µg/mL

Fill blank: measured IC50 at 48 h of the compound FC(F)(F)c1ccc(C2CC(c3ccc(Cl)c(Cl)c3)=NN2c2ccccc2)cc1 (centres unmarked) [Compound 24] is ____.
> 75 µg/mL

----------
For each of the molecules below, state its IC50 at 48 h.
experiment: Cytotoxic activity on normal cells, MTT assay; type: cell-based; settings: normal human cell line L02

O=C(/C=C/c1cccs1)c1ccc(Cl)c(Cl)c1	> 50 µg/mL

Fill blank: measured IC50 at 48 h of the molecule Clc1ccc(C2=NN(c3ccccc3)C(c3cccs3)C2)cc1Cl (centres unmarked) is ____.
> 75 µg/mL

----------
system: Mycobacterium tuberculosis H37Rv; test: Antitubercular activity, broth dilution assay (MIC); type: cell-based; details: Mycobacterium tuberculosis, H37RV, 504 h, Middlebrook 7H9 broth, 37 °C, 21 days
endpoint: MIC (µM)
Answers are plain numbers, in µM.

# example entries with known answers
Clc1ccc(C2=NN(c3ccccc3)C(c3ccncc3)C2)cc1Cl (stereo not drawn)	67.9
O=C(/C=C/c1cccnc1)c1ccc(Cl)c(Cl)c1	22.6
O=C(/C=C/c1ccc(C(F)(F)F)cc1)c1ccc(Cl)c(Cl)c1	9.03
Clc1ccc(C2CC(c3ccc(Cl)c(Cl)c3)=NN2c2ccccc2)c(Cl)c1 (stereo not drawn)	7.15
Clc1ccc(C2=NN(c3ccccc3)C(c3ccco3)C2)cc1Cl (stereo not drawn)	17.5
O=C(/C=C/c1ccc[nH]1)c1ccc(Cl)c(Cl)c1	47.2

Please state, for each entry, its recorded MIC.
1. Cc1ccc(C2CC(c3ccc(Cl)c(Cl)c3)=NN2c2ccccc2)cc1 (stereo not drawn)
2. O=C(/C=C/c1ccc(F)cc1F)c1ccc(Cl)c(Cl)c1

1: 262; 2: 9.96

----------
For each of the compounds below, state its IC50 at 48 h.
assay: Cytotoxic activity on normal cells, MTT assay; type: cell-based; conditions: L02 cells (normal human cell line)

O=C(/C=C/c1ccc(C(F)(F)F)cc1)c1ccc(Cl)c(Cl)c1	> 50 µg/mL

Please state, for each entry, its recorded IC50 at 48 h.
1. CN(Cc1cnc2nc(N)nc(N)c2n1)c1ccc(C(=O)N[C@@H](CCC(=O)O)C(=O)O)cc1 [Methotrexate, reference compound]
2. O=C(/C=C/c1ccc(F)cc1)c1ccc(Cl)c(Cl)c1
3. O=C(/C=C/c1ccncc1)c1ccc(Cl)c(Cl)c1
4. O=C(/C=C/c1ccc(F)cc1F)c1ccc(Cl)c(Cl)c1

1: > 75 µg/mL; 2: > 50 µg/mL; 3: > 50 µg/mL; 4: > 50 µg/mL

----------
experiment: Cytotoxic activity on normal cells, MTT assay; type: cell-based; settings: L02 cells (normal human cell line)
endpoint: IC50 at 48 h

Clc1ccc(C2=NN(c3ccccc3)C(c3ccc[nH]3)C2)cc1Cl (stereo not shown)	> 75 µg/mL
O=C(/C=C/c1ccc[nH]1)c1ccc(Cl)c(Cl)c1	> 50 µg/mL
O=C(/C=C/c1ccccc1Cl)c1ccc(Cl)c(Cl)c1	> 50 µg/mL
Clc1ccc(C2CC(c3ccc(Cl)c(Cl)c3)=NN2c2ccccc2)cc1 (stereo not shown)	> 75 µg/mL
O=C(/C=C/c1ccco1)c1ccc(Cl)c(Cl)c1	> 50 µg/mL
Clc1ccc(C2=NN(c3ccccc3)C(c3ccccc3Cl)C2)cc1Cl (stereo not shown)	> 75 µg/mL
O=C(/C=C/c1ccccn1)c1ccc(Cl)c(Cl)c1	> 50 µg/mL
O=C(/C=C/c1ccc(Cl)cc1Cl)c1ccc(Cl)c(Cl)c1	> 50 µg/mL
O=C(/C=C/c1ccccc1F)c1ccc(Cl)c(Cl)c1	> 50 µg/mL

Turning now to a further molecule:
Fill blank: measured IC50 at 48 h of the molecule O=C(/C=C/c1ccc(Cl)cc1)c1ccc(Cl)c(Cl)c1 is ____.
> 50 µg/mL

----------
// condition not met strictly below 200 °C in melting point; condition met otherwise

Look over these answered cases.
O=C(/C=C/c1ccc(F)cc1F)c1ccc(Cl)c(Cl)c1 [Compound 7]	condition met
Clc1ccc(C2=NN(c3ccccc3)C(c3ccccc3Cl)C2)cc1Cl (stereo not drawn) [Compound 21]	condition not met
O=C(/C=C/c1ccccn1)c1ccc(Cl)c(Cl)c1 [Compound 11]	condition not met
O=C(/C=C/c1ccc[nH]1)c1ccc(Cl)c(Cl)c1 [Compound 15]	condition met
O=C(/C=C/c1ccc(C(F)(F)F)cc1)c1ccc(Cl)c(Cl)c1 [Compound 9]	condition not met
Fc1ccc(C2CC(c3ccc(Cl)c(Cl)c3)=NN2c2ccccc2)c(F)c1 (stereo not drawn) [Compound 22]	condition met

Please tell me: is the molecule O=C(/C=C/c1ccco1)c1ccc(Cl)c(Cl)c1 [Compound 14] at or over 200 °C in terms of melting point?
condition not met

Follow-up item: Clc1ccc(C2CC(c3ccc(Cl)c(Cl)c3)=NN2c2ccccc2)c(Cl)c1 (stereo not drawn) [Compound 23]
condition met

Follow-up item: Cc1ccc(C2CC(c3ccc(Cl)c(Cl)c3)=NN2c2ccccc2)cc1 (stereo not drawn) [Compound 17]
condition not met

----------
For each of the molecules below, state its MIC.
tested on: Mycobacterium tuberculosis H37Rv; experiment: Antitubercular activity, broth dilution assay (MIC); type: cell-based; conditions: Mycobacterium tuberculosis, H37RV, 504 h, Middlebrook 7H9 broth, 37 °C, 21 days
Numbers only, in µM.

Clc1ccc(C2=NN(c3ccccc3)C(c3ccccn3)C2)cc1Cl (stereo not drawn)	67.9
O=C(/C=C/c1ccco1)c1ccc(Cl)c(Cl)c1	47
Fc1ccc(C2CC(c3ccc(Cl)c(Cl)c3)=NN2c2ccccc2)c(F)c1 (stereo not drawn)	3.96
FC(F)(F)c1ccc(C2CC(c3ccc(Cl)c(Cl)c3)=NN2c2ccccc2)cc1 (stereo not drawn)	3.67
O=C(/C=C/c1ccc(Cl)cc1Cl)c1ccc(Cl)c(Cl)c1	18.1

Please state, for each entry, its recorded MIC.
1. O=C(/C=C/c1ccc(F)cc1)c1ccc(Cl)c(Cl)c1
2. Clc1ccc(C2=NN(c3ccccc3)C(c3cccnc3)C2)cc1Cl (stereo not drawn)
3. O=C(/C=C/c1ccc(Cl)cc1)c1ccc(Cl)c(Cl)c1
4. O=C(/C=C/c1ccccc1F)c1ccc(Cl)c(Cl)c1

[84.7, 67.9, 80.2, 84.7]
